- assay remarks: Plasma and lung epithelial lining fluid (ELF) concentrations in ICR mice, 20 mg/kg IP
- Type: in vivo, mouse
- condition details: ICR, mouse, plasma; 20 mg/kg IP; read-out: mean plasma AUC0-72
Starred links: 1 amine or outer side, 2 acyl side, 3 side chain; linkers in the order of their positions; H or OH if unused. Positions of bridges follow the written chain, without caps; N, C: chain ends. Non-standard residues stand in square brackets, D forms with d. Residues, ends and D or L forms follow the SMILES beside them. *: point of attachment. Orn(4R-OH,5R-OCH2CH2NMe3+) = C[N+](C)(C)CCO[C@@H](N[*:3])[C@H](O)C[C@H](N[*:1])C(=O)[*:2]; pTerphenylCO(4''-OnC5H11) = CCCCCOc1ccc(-c2ccc(-c3ccc(C(=O)*)cc3)cc2)cc1; hTyr(3S-OH,4S-OH) = N[C@H](C(=O)O)[C@H](O)[C@@H](O)c1ccc(O)cc1; Pro(3S-OH,4S-Me) = C[C@H]1CN[C@H](C(=O)O)[C@H]1O; Hyp = O=C(O)[C@@H]1C[C@@H](O)CN1

{"compound": "CCCCCOc1ccc(-c2ccc(-c3ccc(C(=O)N[C@H]4C[C@@H](O)[C@@H](OCC[N+](C)(C)C)NC(=O)[C@@H]5[C@@H](O)[C@@H](C)CN5C(=O)[C@H]([C@@H](C)O)NC(=O)[C@H]([C@H](O)[C@@H](O)c5ccc(O)cc5)NC(=O)[C@@H]5C[C@@H](O)CN5C(=O)[C@H]([C@@H](C)O)NC4=O)cc3)cc2)cc1 [CD101] ({pTerphenylCO(4''-OnC5H11)}-[Orn(4R-OH,5R-OCH2CH2NMe3+)]T[Hyp][hTyr(3S-OH,4S-OH)]T[Pro(3S-OH,4S-Me)]; lactam 1-C)", "quantity unit": "µg·h/mL", "AUC(0-t)": 762}

----------
- assay remarks: Pharmacokinetics of CD101 after single 30 mg/kg SC (vs IV) dose in monkeys
- Assay type: in vivo
- condition details: male, cynomolgus monkey, plasma; animal 9697, M; 30 mg/kg SC
- Experimental: Previous toxicology studies by the IV route of administration conducted in cynomolgus monkeys have shown CD101 to be safe and well tolerated at up to at least 30 mg/kg, which generates very high systemic exposures upon initial infusion of CD101 into the bloodstream. Therefore, only local tolerability (and PK) of CD101 by SC administration required evaluation. […] Plasma concentrations were then quantified by liquid chromatography with tandem mass spectrometric detection (LC-MS/MS). […]
Starred links: 1 amine or outer side, 2 acyl side, 3 side chain; linkers in the order of their positions; H or OH if unused. Positions of bridges follow the written chain, without caps; N, C: chain ends. Non-standard residues stand in square brackets, D forms with d. Residues, ends and D or L forms follow the SMILES beside them. *: point of attachment. Orn(4R-OH,5R-OCH2CH2NMe3+) = C[N+](C)(C)CCO[C@@H](N[*:3])[C@H](O)C[C@H](N[*:1])C(=O)[*:2]; pTerphenylCO(4''-OnC5H11) = CCCCCOc1ccc(-c2ccc(-c3ccc(C(=O)*)cc3)cc2)cc1; hTyr(3S-OH,4S-OH) = N[C@H](C(=O)O)[C@H](O)[C@@H](O)c1ccc(O)cc1; Pro(3S-OH,4S-Me) = C[C@H]1CN[C@H](C(=O)O)[C@H]1O; Hyp = O=C(O)[C@@H]1C[C@@H](O)CN1
metric: Cmax

{"compound": "CCCCCOc1ccc(-c2ccc(-c3ccc(C(=O)N[C@H]4C[C@@H](O)[C@@H](OCC[N+](C)(C)C)NC(=O)[C@@H]5[C@@H](O)[C@@H](C)CN5C(=O)[C@H]([C@@H](C)O)NC(=O)[C@H]([C@H](O)[C@@H](O)c5ccc(O)cc5)NC(=O)[C@@H]5C[C@@H](O)CN5C(=O)[C@H]([C@@H](C)O)NC4=O)cc3)cc2)cc1 [CD101] ({pTerphenylCO(4''-OnC5H11)}-[Orn(4R-OH,5R-OCH2CH2NMe3+)]T[Hyp][hTyr(3S-OH,4S-OH)]T[Pro(3S-OH,4S-Me)]; lactam 1-C)", "metric": "Cmax", "observed value": "15900 ng/mL"}

----------
- assay remarks: Protein binding by ultracentrifugation, mouse plasma
- Type: in vitro ADME
- condition details: read-out: percent of bound CD101, mean (protein binding) (converted)
Starred links: 1 amine or outer side, 2 acyl side, 3 side chain; linkers in the order of their positions; H or OH if unused. Positions of bridges follow the written chain, without caps; N, C: chain ends. Non-standard residues stand in square brackets, D forms with d. Residues, ends and D or L forms follow the SMILES beside them. *: point of attachment. Orn(4R-OH,5R-OCH2CH2NMe3+) = C[N+](C)(C)CCO[C@@H](N[*:3])[C@H](O)C[C@H](N[*:1])C(=O)[*:2]; pTerphenylCO(4''-OnC5H11) = CCCCCOc1ccc(-c2ccc(-c3ccc(C(=O)*)cc3)cc2)cc1; hTyr(3S-OH,4S-OH) = N[C@H](C(=O)O)[C@H](O)[C@@H](O)c1ccc(O)cc1; Pro(3S-OH,4S-Me) = C[C@H]1CN[C@H](C(=O)O)[C@H]1O; Hyp = O=C(O)[C@@H]1C[C@@H](O)CN1

{"compound": "CCCCCOc1ccc(-c2ccc(-c3ccc(C(=O)N[C@H]4C[C@@H](O)[C@@H](OCC[N+](C)(C)C)NC(=O)[C@@H]5[C@@H](O)[C@@H](C)CN5C(=O)[C@H]([C@@H](C)O)NC(=O)[C@H]([C@H](O)[C@@H](O)c5ccc(O)cc5)NC(=O)[C@@H]5C[C@@H](O)CN5C(=O)[C@H]([C@@H](C)O)NC4=O)cc3)cc2)cc1 [CD101] ({pTerphenylCO(4''-OnC5H11)}-[Orn(4R-OH,5R-OCH2CH2NMe3+)]T[Hyp][hTyr(3S-OH,4S-OH)]T[Pro(3S-OH,4S-Me)]; lactam 1-C)", "fraction unbound at 2.5 hr": 0.008}

----------
- assay remarks: Plasma and lung epithelial lining fluid (ELF) concentrations in ICR mice, 20 mg/kg IP
- Type: in vivo, mouse
- condition details: ICR, mouse, plasma, ip, 20 mg/kg, 20 mg/kg IP; read-out: plasma half-life (converted)
Starred links: 1 amine or outer side, 2 acyl side, 3 side chain; linkers in the order of their positions; H or OH if unused. Positions of bridges follow the written chain, without caps; N, C: chain ends. Non-standard residues stand in square brackets, D forms with d. Residues, ends and D or L forms follow the SMILES beside them. *: point of attachment. Orn(4R-OH,5R-OCH2CH2NMe3+) = C[N+](C)(C)CCO[C@@H](N[*:3])[C@H](O)C[C@H](N[*:1])C(=O)[*:2]; pTerphenylCO(4''-OnC5H11) = CCCCCOc1ccc(-c2ccc(-c3ccc(C(=O)*)cc3)cc2)cc1; hTyr(3S-OH,4S-OH) = N[C@H](C(=O)O)[C@H](O)[C@@H](O)c1ccc(O)cc1; Pro(3S-OH,4S-Me) = C[C@H]1CN[C@H](C(=O)O)[C@H]1O; Hyp = O=C(O)[C@@H]1C[C@@H](O)CN1

{"compound": "CCCCCOc1ccc(-c2ccc(-c3ccc(C(=O)N[C@H]4C[C@@H](O)[C@@H](OCC[N+](C)(C)C)NC(=O)[C@@H]5[C@@H](O)[C@@H](C)CN5C(=O)[C@H]([C@@H](C)O)NC(=O)[C@H]([C@H](O)[C@@H](O)c5ccc(O)cc5)NC(=O)[C@@H]5C[C@@H](O)CN5C(=O)[C@H]([C@@H](C)O)NC4=O)cc3)cc2)cc1 [CD101] ({pTerphenylCO(4''-OnC5H11)}-[Orn(4R-OH,5R-OCH2CH2NMe3+)]T[Hyp][hTyr(3S-OH,4S-OH)]T[Pro(3S-OH,4S-Me)]; lactam 1-C)", "half-life (h)": 21}

----------
- assay remarks: Pharmacokinetics of CD101 after single 30 mg/kg SC (vs IV) dose in monkeys
- Type: in vivo
- condition details: both sexes, cynomolgus monkey, plasma, sc; Subcutaneous 30 mg/kg
Starred links: 1 amine or outer side, 2 acyl side, 3 side chain; linkers in the order of their positions; H or OH if unused. Positions of bridges follow the written chain, without caps; N, C: chain ends. Non-standard residues stand in square brackets, D forms with d. Residues, ends and D or L forms follow the SMILES beside them. *: point of attachment. Orn(4R-OH,5R-OCH2CH2NMe3+) = C[N+](C)(C)CCO[C@@H](N[*:3])[C@H](O)C[C@H](N[*:1])C(=O)[*:2]; pTerphenylCO(4''-OnC5H11) = CCCCCOc1ccc(-c2ccc(-c3ccc(C(=O)*)cc3)cc2)cc1; hTyr(3S-OH,4S-OH) = N[C@H](C(=O)O)[C@H](O)[C@@H](O)c1ccc(O)cc1; Pro(3S-OH,4S-Me) = C[C@H]1CN[C@H](C(=O)O)[C@H]1O; Hyp = O=C(O)[C@@H]1C[C@@H](O)CN1
metric: AUC(0-t) (µg·h/mL)

{"molecule": "CCCCCOc1ccc(-c2ccc(-c3ccc(C(=O)N[C@H]4C[C@@H](O)[C@@H](OCC[N+](C)(C)C)NC(=O)[C@@H]5[C@@H](O)[C@@H](C)CN5C(=O)[C@H]([C@@H](C)O)NC(=O)[C@H]([C@H](O)[C@@H](O)c5ccc(O)cc5)NC(=O)[C@@H]5C[C@@H](O)CN5C(=O)[C@H]([C@@H](C)O)NC4=O)cc3)cc2)cc1 [CD101] ({pTerphenylCO(4''-OnC5H11)}-[Orn(4R-OH,5R-OCH2CH2NMe3+)]T[Hyp][hTyr(3S-OH,4S-OH)]T[Pro(3S-OH,4S-Me)]; lactam 1-C)", "quantity unit": "µg·h/mL", "observed value": 2460}
